Target: GST-Plk1 (Homo sapiens, UniProt P53350)
Sequence (P53350 whole entry): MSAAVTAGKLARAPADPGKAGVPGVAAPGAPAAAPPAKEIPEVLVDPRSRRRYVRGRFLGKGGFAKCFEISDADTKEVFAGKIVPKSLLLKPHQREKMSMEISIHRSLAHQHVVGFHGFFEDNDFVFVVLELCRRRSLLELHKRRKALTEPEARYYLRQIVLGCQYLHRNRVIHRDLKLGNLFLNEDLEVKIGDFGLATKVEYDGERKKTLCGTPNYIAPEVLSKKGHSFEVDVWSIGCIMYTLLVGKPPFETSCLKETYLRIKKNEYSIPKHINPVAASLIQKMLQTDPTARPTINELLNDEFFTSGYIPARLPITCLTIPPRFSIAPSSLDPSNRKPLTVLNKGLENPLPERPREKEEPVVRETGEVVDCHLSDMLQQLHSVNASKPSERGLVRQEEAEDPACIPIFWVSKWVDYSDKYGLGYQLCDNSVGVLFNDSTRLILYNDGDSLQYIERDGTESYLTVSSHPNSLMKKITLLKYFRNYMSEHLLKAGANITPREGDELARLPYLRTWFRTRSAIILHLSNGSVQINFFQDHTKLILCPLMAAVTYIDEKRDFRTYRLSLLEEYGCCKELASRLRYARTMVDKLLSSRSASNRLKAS
pIC50: −log10 of the molar value.
Use 1.0 when the recorded pIC50 is no lower than 7; use 0.0 when it is lower.

Tell me whether pIC50 is at least 7 here: CN1CCN(C(=O)c2ccc3ncn(-c4nc(-c5cccc(Cl)c5)c(C(N)=O)s4)c3c2)CC1
0.0

For this molecule, is measured pIC50 7 or higher? NC(=O)c1sc(-n2cnc3ccc(OCCN4CCOCC4)cc32)nc1-c1cccc(Cl)c1
0.0

Reported pIC50 at or above 7? NC(=O)c1sc(-n2cnc3ccc(OCCCN4CCOCC4)cc32)nc1-c1cccc(Cl)c1
1.0

Hi, just wondering whether CN1CCN(Cc2ccc3c(c2)ncn3-c2nc(-c3ccc(Cl)cc3)c(C(N)=O)s2)CC1 shows pIC50 of 7 or higher.
0.0

Hello, I need to know if CN1CCN(Cc2ccc3ncn(-c4nc(-c5ccc(C(F)(F)F)cc5)c(C(N)=O)s4)c3c2)CC1 has measured pIC50 not below 7. Thanks!
0.0

More entries:
Confirm if pIC50 reported for the molecule CN1CCN(Cc2ccc3ncn(-c4nc(-c5cccc(Cl)c5)c(C(N)=O)s4)c3c2)CC1 is 7 or above.
1.0

hey, is pIC50 for this one >= 7? COc1cc2ncn(-c3nc(-c4cccc(Cl)c4)c(C(N)=O)s3)c2cc1OCCCN1CCN(C)CC1
1.0
